- targetUnderTest: 2-amino-4-hydroxy-6-hydroxymethyldihydropteridine pyrophosphokinase (Escherichia coli (strain K12), UniProt P26281)
- Sequence (P26281 whole entry): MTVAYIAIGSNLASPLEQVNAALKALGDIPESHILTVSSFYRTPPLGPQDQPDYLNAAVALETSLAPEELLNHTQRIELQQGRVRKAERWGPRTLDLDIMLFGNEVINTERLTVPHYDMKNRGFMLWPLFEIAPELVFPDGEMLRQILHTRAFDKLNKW
- experimentDescription: Inhibition of Escherichia coli HPPK using [alpha-33P]ATP after 30 mins
valueKind: pIC50
FYI, pIC50 means -log10 of a concentration in mol per litre.

Reported pIC50 for "CC1(C)Nc2nc(N)[nH]c(=O)c2N=C1C(=O)NCC(=O)NCCS(=O)(=O)C[C@H]1O[C@@H](n2cnc3c(N)ncnc32)[C@H](O)[C@@H]1O" : what is it? 5.02
